Target: UniProtKB Q16769
Test: Inhibition of human recombinant glutaminyl cyclase expressed in Escherichia coli using H-Gln-Gln-H substrate measured for 15 mins by spectrophotometry
Sequence (Q16769 whole entry): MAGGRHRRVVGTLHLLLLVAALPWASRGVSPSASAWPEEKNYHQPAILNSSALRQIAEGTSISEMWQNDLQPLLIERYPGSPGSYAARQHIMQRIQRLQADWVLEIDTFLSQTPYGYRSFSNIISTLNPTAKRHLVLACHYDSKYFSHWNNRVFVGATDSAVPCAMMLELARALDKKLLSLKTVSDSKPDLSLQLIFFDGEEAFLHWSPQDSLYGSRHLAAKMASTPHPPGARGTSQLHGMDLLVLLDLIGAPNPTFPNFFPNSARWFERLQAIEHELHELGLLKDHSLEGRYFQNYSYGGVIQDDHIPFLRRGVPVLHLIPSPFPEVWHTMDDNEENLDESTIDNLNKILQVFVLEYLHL
pIC50: −log10 of the molar value.

COMPOUND STRUCTURE | pIC50
O=c1cc(-c2ccc(O)cc2)oc2cc(O)ccc12 | 4.34

====

Molecular target: Glutaminyl-peptide cyclotransferase (Homo sapiens, UniProt Q16769)
Assay: Inhibition of human recombinant glutaminyl cyclase expressed in Escherichia coli at 100 uM using H-Gln-Gln-H substrate measured for 15 mins by spectrophotometry relative to control
Sequence (Q16769 29-361 limits assumed): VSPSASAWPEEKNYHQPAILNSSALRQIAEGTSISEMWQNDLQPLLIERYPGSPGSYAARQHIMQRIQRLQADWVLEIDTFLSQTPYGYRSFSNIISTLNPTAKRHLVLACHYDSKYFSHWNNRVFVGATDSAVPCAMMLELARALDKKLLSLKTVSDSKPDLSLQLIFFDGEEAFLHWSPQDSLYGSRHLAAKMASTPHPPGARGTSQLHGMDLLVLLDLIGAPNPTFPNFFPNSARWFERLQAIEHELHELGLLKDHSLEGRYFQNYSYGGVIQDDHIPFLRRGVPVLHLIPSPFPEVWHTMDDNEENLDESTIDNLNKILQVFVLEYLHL
This listing pairs compounds with measured inhibition.
VALUE KIND: inhibition (%)

COMPOUND STRUCTURE | EXPERIMENTAL TARGET | RESULT
O=c1cc(-c2ccc(O)cc2)oc2cc(O)ccc12 | Glutaminyl-peptide cyclotransferase (Homo sapiens, UniProt Q16769) | 71.8
O=c1cc(-c2ccc(O)cc2)oc2cc(O)cc(O)c12 | Glutaminyl-peptide cyclotransferase (Homo sapiens, UniProt Q16769) | 75.2
COc1ccc(-c2cc(=O)c3c(O)cc(O)cc3o2)c(OC)c1 | Glutaminyl-peptide cyclotransferase (Homo sapiens, UniProt Q16769) | 71.7
COc1ccc(-c2cc(=O)c3ccc(O)cc3o2)cc1 | Glutaminyl-peptide cyclotransferase (Homo sapiens, UniProt Q16769) | 75.2
